IC50, UniProtKB Q86WV6: measured values

CHEMICAL STRUCTURE	IC50, nM
COc1cc2c(cc1OCCCOc1c(OC)cc3sc(C(=O)CCC(=O)O)cc3c1F)CN(C(=O)CCC(=O)O)C2	0.19
COc1cc2sc(C(=O)CCC(=O)O)cc2cc1OCCCOc1c(OC)cc2c(c1F)CN(C(=O)CCC(=O)O)C2	0.28
COc1cc2c(cc1OCCCOc1cc3cc(C(=O)NCCC(=O)O)sc3cc1OC)CN(C(=O)CCC(=O)O)C2	4.59
COc1cc2c(cc1OCCCOc1cc3sc(C(=O)CCC(=O)O)cc3nc1OC)CN(C(=O)CCC(=O)O)C2	92.6

====

IC50, human STING WT (Homo sapiens (Human)): measured values
MEASURED QUANTITY: IC50 (nM)

MOLECULE	MEASURED QUANTITY	COMPARISON SYMBOL	DATA VALUE
C=C(COc1c(OC)cc2c(c1Cl)CN(C(=O)CCC(=O)O)C2)COc1c(OC)cc2sc(C(=O)CCC(=O)O)cc2c1F [Example 16]	IC50	>	150
COc1cc2c(cc1OCCCOc1nc3cc(C(=O)CCC(=O)O)sc3cc1OC)CN(C(=O)CCC(=O)O)C2 [Example 8]	IC50	=	0.65
COc1cc2c(nc1OCCCOc1nc3cc(C(=O)CCC(=O)O)sc3cc1OC)CN(C(=O)CCC(=O)O)C2 [Example 11]	IC50	=	2.54
COc1cc2c(c(F)c1OCCCOc1c(OC)cc3sc(C(=O)C[C@H](C)C(=O)O)cc3c1F)CN(C(=O)C[C@H](C)C(=O)O)C2 [Example 17]	IC50	=	0.19
COc1cc2c(cc1OCCCOc1c(OC)cc3sc(C(=O)C[C@H](C)C(=O)O)cc3c1F)CN(C(=O)C[C@H](C)C(=O)O)C2 [Example 6]	IC50	=	0.36
COc1cc2sc(C(=O)CCC(=O)O)cc2cc1OCCCOc1c(OC)cc2c(c1Cl)CN(C(=O)CCC(=O)O)C2 [Example 14]	IC50	=	46.6
COc1cc2c(cc1OCCCOc1cc3cc(C(=O)CCC(=O)O)sc3cc1Br)CN(C(=O)CCC(=O)O)C2 [Example 9]	IC50	=	2.23

====

EXPERIMENTAL TARGET: human STING WT (Homo sapiens (Human), UniProt Q86WV6)
Sequence (Q86WV6 whole entry): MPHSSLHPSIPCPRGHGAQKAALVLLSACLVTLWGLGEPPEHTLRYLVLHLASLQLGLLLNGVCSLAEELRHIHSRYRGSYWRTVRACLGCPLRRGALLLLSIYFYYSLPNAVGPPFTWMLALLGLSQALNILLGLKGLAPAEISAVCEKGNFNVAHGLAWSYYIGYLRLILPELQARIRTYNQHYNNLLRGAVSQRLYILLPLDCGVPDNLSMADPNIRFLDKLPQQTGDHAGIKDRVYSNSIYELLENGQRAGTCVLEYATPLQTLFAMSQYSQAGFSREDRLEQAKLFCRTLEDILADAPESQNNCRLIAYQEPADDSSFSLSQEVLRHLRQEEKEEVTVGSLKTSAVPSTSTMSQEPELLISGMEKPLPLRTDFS
Quick reference for IC50 among some compounds
MEASURED QUANTITY: IC50 (nM)

COMPOUND	DATA VALUE
COc1cc2c(c(F)c1OCCCOc1c(OC)cc3sc(C(=O)CCC(=O)O)cc3c1F)CN(C(=O)CCC(=O)O)C2	0.18
COc1cc2c(cc1OCCCOc1cc3cc(C(=O)CCC(=O)O)sc3cc1OC)CN(C(=O)CCC(=O)O)C2	0.06
C=C(COc1cc2c(cc1OC)CN(C(=O)CCC(=O)O)C2)COc1cc2cc(C(=O)CCC(=O)O)sc2cc1OC	54.6
COc1cc2c(c(Cl)c1OCCCOc1c(OC)cc3sc(C(=O)CCC(=O)O)cc3c1F)CN(C(=O)CCC(=O)O)C2	11.4
COc1cc2c(c(F)c1OCCCOc1c(OC)cc3sc(C(=O)CCC(=O)O)cc3c1Cl)CN(C(=O)CCC(=O)O)C2	8.4
COc1cc2c(cc1OCCCOc1cc3cc(C(=O)C[C@H](C)C(=O)O)sc3cc1OC)CN(C(=O)C[C@H](C)C(=O)O)C2	0.32
COc1cc2sc(C(=O)[C@H]3C[C@@H]3C(=O)O)cc2cc1OCCCOc1c(OC)cc2c(c1F)CN(C(=O)CCC(=O)O)C2 (relative stereo)	159
